target_system: KPC-2, lysate of KP1008 (Klebsiella pneumoniae, UniProt Q9F663)
Sequence (Q9F663 25-293 limits assumed): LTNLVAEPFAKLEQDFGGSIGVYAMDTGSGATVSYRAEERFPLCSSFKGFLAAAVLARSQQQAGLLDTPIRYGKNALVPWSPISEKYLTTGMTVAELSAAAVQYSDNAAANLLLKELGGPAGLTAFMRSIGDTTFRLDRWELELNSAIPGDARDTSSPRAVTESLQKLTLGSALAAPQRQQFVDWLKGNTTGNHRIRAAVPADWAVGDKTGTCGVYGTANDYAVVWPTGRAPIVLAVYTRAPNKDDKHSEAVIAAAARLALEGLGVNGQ
method: Inhibition of ceftazidime hydrolysis by bacterial lysate
In this section we review reported IC50 values for a set of compounds.

Cl.N[C@H]1CCC(CC(=O)O)OB1O (stereo partly shown) [Compound 7, hydrochloride] :: > 4770 nM
O=C(O)C[C@@H]1CC[C@H](NC(=O)Cc2ccccc2)B(O)O1 [Compound 6] :: < 344 nM
O=C(O)CC1CC[C@H](NC(=O)C2CC2)B(O)O1 (stereo partly shown) [Compound 4] :: < 415 nM

Pending compound:
Please supply the value of reported IC50 for the item CC(=O)N[C@H]1CCC(CC(=O)O)OB1O (stereo partly shown) [Compound 3]
465 to 4650 nM

###

IC50 reference
target_system: various β-lactamases (bacterial lysates) (Escherichia coli, UniProt A0A5R8T042)
Sequence (A0A5R8T042 29-291): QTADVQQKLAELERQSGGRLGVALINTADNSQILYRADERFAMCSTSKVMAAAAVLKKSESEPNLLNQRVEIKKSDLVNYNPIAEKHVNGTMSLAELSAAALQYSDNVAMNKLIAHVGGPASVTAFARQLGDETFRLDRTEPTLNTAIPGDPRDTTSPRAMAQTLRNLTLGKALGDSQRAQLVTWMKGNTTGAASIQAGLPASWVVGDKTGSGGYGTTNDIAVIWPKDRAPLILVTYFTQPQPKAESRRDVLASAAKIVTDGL
method: biochemical
protocol_conditions: read-out: AZT IC50 KP1009 CTX-M-15

O=C(O)C[C@@H]1CC[C@H](NC(=O)Cc2cc(F)cc(F)c2)B(O)O1 :: > 6.11 µM
O=C(O)C[C@@H]1CC[C@H](NC(=O)c2ccccc2)B(O)O1 :: < 1.8 µM
O=C(O)C[C@@H]1CC[C@H](NC(=O)c2ccc(Cn3cnnn3)cc2)B(O)O1 :: 1.39 to 5.57 µM
O=C(O)C[C@@H]1CC[C@H](NC(=O)[C@H]2Cc3ccccc3CN2)B(O)O1 :: > 6.02 µM
N[C@@H](CCC(=O)N[C@H]1CC[C@@H](CC(=O)O)OB1O)C(=O)O :: > 6.62 µM

Dear colleague, please send me the reported IC50 for NCCSCC(=O)N[C@H]1CC[C@@H](CC(=O)O)OB1O when you can.
> 6.89 µM

Identify measured IC50 associated with NCCC(=O)N[C@H]1CC[C@@H](CC(=O)O)OB1O
> 8.19 µM

# return recorded IC50 for input CC(=O)N[C@H]1CCC(CC(=O)O)OB1O (stereo partly drawn)
> 9.3 µM

Indicate the recorded IC50 value for this compound: NC(Cc1cccnc1)C(=O)N[C@H]1CC[C@@H](CC(=O)O)OB1O (stereo partly drawn)
> 6.23 µM

###

Parameter IC50: see the listing below.
target_system: various β-lactamases (bacterial lysates) (Klebsiella pneumoniae)
method: biochemical
Type: biochemical
protocol_conditions: lysate KP1004 KPC-2; aztreonam cleavage; read-out: AZT IC50 KP1004 KPC-2 (converted)

Consider the reported IC50 for these molecules:
O=C(O)C[C@@H]1CC[C@H](NC(=O)Cc2ccccc2)B(O)O1 :: < 1720 nM
N[C@@H](CCC(=O)N[C@H]1CC[C@@H](CC(=O)O)OB1O)C(=O)O :: > 6620 nM
O=C(O)C[C@@H]1CC[C@H](NC(=O)Cc2ccccn2)B(O)O1 :: < 1710 nM
CO/N=C(\C(=O)N[C@H]1CC[C@@H](CC(=O)O)OB1O)c1csc(N)n1 :: 1400 to 5620 nM
O=C(O)C[C@@H]1CC[C@H](NC(=O)Cc2ccncc2)B(O)O1 :: < 1710 nM
CSCCC(N)C(=O)N[C@H]1CC[C@@H](CC(=O)O)OB1O (stereo partly drawn) :: < 1640 nM
Nc1nc(CC(=O)N[C@H]2CC[C@@H](CC(=O)O)OB2O)cs1 :: < 1600 nM
N=C(N)NCCC[C@@H](N)C(=O)N[C@H]1CC[C@@H](CC(=O)O)OB1O :: 1520 to 6080 nM

Below: the item to evaluate.
Indicate its recorded IC50; the molecule in question is Nc1nc(/C(=N/OCc2cc(=O)c(O)cn2O)C(=O)N[C@H]2CC[C@@H](CC(=O)O)OB2O)cs1
1040 to 4160 nM

###

method: Single dose pharmacokinetics and oral bioavailability in rats, Table 15
Format: in vivo, Sprague-Dawley (SD) rats
protocol_conditions: Sprague-Dawley, rat, plasma; male SD rats, PO, 50 mg/kg; read-out: CL/F (converted)
property: CL/F (mL/min/kg)
Give the value, in units of mL/min/kg, as a plain number.

Output CL/F of O=C(O)C[C@@H]1CC[C@H](NC(=O)Cc2cccs2)B(O)O1
1010

###

target_system: various β-lactamases (bacterial lysates) (Pseudomonas aeruginosa, UniProt P14489)
Sequence (P14489 20-266): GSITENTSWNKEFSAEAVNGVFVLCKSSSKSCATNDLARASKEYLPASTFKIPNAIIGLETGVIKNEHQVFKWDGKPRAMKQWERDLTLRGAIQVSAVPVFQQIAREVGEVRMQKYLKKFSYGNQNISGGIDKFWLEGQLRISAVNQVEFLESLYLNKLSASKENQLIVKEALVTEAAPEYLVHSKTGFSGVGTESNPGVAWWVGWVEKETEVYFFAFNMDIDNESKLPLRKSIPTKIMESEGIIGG
method: biochemical
protocol_conditions: AZT IC50 KP1007 OXA-10
property: IC50

NC1(CC(=O)N[C@H]2CC[C@@H](CC(=O)O)OB2O)CCCCC1 :: > 6.41 µM

Find the measured IC50 of NCCSCC(=O)N[C@H]1CC[C@@H](CC(=O)O)OB1O and report it.
> 6.89 µM

Respond only with IC50 recorded for CSCCC(N)C(=O)N[C@H]1CC[C@@H](CC(=O)O)OB1O (some centres unmarked)
> 6.58 µM

Given O=C(O)C[C@@H]1CC[C@H](NC(=O)Cc2ccccn2)B(O)O1 , respond with its IC50.
> 6.85 µM

Give me measured IC50, please, for this compound: O=C(O)C[C@@H]1CC[C@H](NC(=O)[C@H]2Cc3ccccc3CN2)B(O)O1
> 6.02 µM

Please report IC50 for the following compound: O=C(O)C[C@@H]1CC[C@H](NC(=O)Cc2cccnc2)B(O)O1
> 6.85 µM

Give reported IC50 value for O=C(O)C[C@@H]1CC[C@H](NC(=O)Cn2ccnc2-c2ccccc2)B(O)O1
> 5.6 µM

Retrieve IC50 measured for CCOC(=O)C[C@@H]1CC[C@H](NC(=O)Cc2cccs2)B(O)O1 and print it.
> 6.15 µM

###

target_system: KPC-3, lysate of EC1007 (Klebsiella pneumoniae, UniProt Q9F663, H272Y)
method: Inhibition of ceftazidime hydrolysis by bacterial lysate
pIC50: −log10 of the molar value.
Reported pIC50 by item:

O=C(O)CC1CC[C@H](NC(=O)C2CC2)B(O)O1 (some centres unmarked) :: > 6.38

Please report pIC50 for the following compound: Cl.N[C@H]1CCC(CC(=O)O)OB1O (some centres unmarked) [Compound 7, hydrochloride]
< 5.32

###

System: strains expressing class A ESBLs
Format: cell-based
property: MPC4 CTX-M-14 KP1005

O=C(O)[C@H]1/C(=C/CO)O[C@@H]2CC(=O)N21 [Clavulanic Acid, reference compound] :: 2.5 µg/mL

Please look at the following compound next.
Look up MPC4 CTX-M-14 KP1005 of C[C@]1(Cn2ccnn2)[C@H](C(=O)O)N2C(=O)C[C@H]2S1(=O)=O [Tazobactam, reference compound] and report it.
10 µg/mL

###

target_system: various β-lactamases (bacterial lysates) (Klebsiella pneumoniae, UniProt Q9F663, H272Y)
Sequence (Q9F663 whole entry H272Y, looked up): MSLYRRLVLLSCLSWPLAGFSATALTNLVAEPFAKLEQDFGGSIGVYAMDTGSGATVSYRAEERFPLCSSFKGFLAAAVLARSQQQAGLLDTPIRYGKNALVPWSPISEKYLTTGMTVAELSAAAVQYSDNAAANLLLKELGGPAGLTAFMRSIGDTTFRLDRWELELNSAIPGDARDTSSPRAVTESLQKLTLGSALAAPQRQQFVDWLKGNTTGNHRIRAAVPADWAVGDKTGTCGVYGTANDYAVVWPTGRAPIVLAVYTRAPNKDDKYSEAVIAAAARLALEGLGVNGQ
method: biochemical
pIC50: −log10 of the molar value.
Readings of pIC50 for the listed molecules

Below: 3 molecules and their reported pIC50.
O=C(O)CC1CCC[C@H](NC(=O)Cc2cccs2)B(O)O1 (stereo partly drawn) [Compound 63] :: 5.19 to 5.79
O=C(O)C[C@@H]1CC[C@H](NC(=O)Cc2cccs2)B(O)O1 [Compound 5] :: > 5.77
O=C(O)C[C@@H]1CC[C@H](NC(=O)Cc2ccccc2)B(O)O1 [Compound 6] :: > 5.77

Hello, please tell me recorded pIC50 for this one: O=C(O)C[C@@H]1CC[C@H](NC(=O)Cc2ccncc2)B(O)O1 [Compound 49]
> 5.77

Look up and state reported pIC50 for O=C(O)C[C@@H]1CC[C@H](NC(=O)C[C@H]2CCCCN2)B(O)O1 [Compound 52]
5.17 to 5.78

Provide one value: measured pIC50 of N[C@H](C(=O)N[C@H]1CC[C@@H](CC(=O)O)OB1O)c1ccccc1 [Compound 33]
> 5.79

Read the entry O=C(O)C[C@@H]1CC[C@H](NC(=O)Cc2cccnc2)B(O)O1 [Compound 43] and write its reported pIC50.
> 5.77

Answer with reported pIC50 of O=C(O)C[C@@H]1CC[C@H](NC(=O)[C@@H]2CCCCN2)B(O)O1 [Compound 45]
> 5.75

Supply reported pIC50 belonging to this molecule: O=C(O)C[C@@H]1CC[C@H](NC(=O)[C@H]2Cc3ccccc3CN2)B(O)O1 [Compound 46]
> 5.82

Identify the reported pIC50 for the following entry. N=C(N)NCCC[C@@H](N)C(=O)N[C@H]1CC[C@@H](CC(=O)O)OB1O [Compound 47]
> 5.82

###

Recorded pIC50 values for a group of compounds are listed next.
target_system: various β-lactamases (bacterial lysates) (Klebsiella pneumoniae, UniProt Q9F663)
Sequence (Q9F663 whole entry, looked up): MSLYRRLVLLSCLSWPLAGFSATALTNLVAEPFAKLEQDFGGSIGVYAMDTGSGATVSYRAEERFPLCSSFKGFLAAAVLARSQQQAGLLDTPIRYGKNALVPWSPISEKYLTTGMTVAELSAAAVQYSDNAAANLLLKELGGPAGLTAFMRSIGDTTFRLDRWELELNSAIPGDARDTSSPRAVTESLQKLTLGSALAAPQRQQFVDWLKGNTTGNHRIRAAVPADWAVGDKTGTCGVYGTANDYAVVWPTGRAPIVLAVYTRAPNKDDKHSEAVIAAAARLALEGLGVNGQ
method: biochemical
Type: biochemical
protocol_conditions: lysate KP1008 KPC-2; aztreonam cleavage; read-out: AZT IC50 KP1008 KPC-2
pIC50: −log10 of the molar value.

CC(=O)N[C@H]1CCC(CC(=O)O)OB1O (stereo partly drawn) :: 5.03 to 5.63

Identify the reported pIC50 for the following entry. O=C(O)C[C@@H]1CC[C@H](NC(=O)c2cn(C3CC3)c3cc(N4CCNCC4)c(F)cc3c2=O)B(O)O1
> 5.99

Tell me measured pIC50 for Nc1cc(CC(=O)N[C@H]2CC[C@@H](CC(=O)O)OB2O)ccn1 please.
> 5.79

// fetch pIC50 given entry N[C@H](C(=O)N[C@H]1CC[C@@H](CC(=O)O)OB1O)c1ccccc1
5.18 to 5.79

Identify measured pIC50 corresponding to CC(C)(O/N=C(\C(=O)N[C@H]1CC[C@@H](CC(=O)O)OB1O)c1csc(N)n1)C(=O)O
5.33 to 5.93
